Molecular target: 5-hydroxytryptamine receptor 1A (Homo sapiens, UniProt P08908); note: assay procedure not described here
Sequence (P08908 whole entry): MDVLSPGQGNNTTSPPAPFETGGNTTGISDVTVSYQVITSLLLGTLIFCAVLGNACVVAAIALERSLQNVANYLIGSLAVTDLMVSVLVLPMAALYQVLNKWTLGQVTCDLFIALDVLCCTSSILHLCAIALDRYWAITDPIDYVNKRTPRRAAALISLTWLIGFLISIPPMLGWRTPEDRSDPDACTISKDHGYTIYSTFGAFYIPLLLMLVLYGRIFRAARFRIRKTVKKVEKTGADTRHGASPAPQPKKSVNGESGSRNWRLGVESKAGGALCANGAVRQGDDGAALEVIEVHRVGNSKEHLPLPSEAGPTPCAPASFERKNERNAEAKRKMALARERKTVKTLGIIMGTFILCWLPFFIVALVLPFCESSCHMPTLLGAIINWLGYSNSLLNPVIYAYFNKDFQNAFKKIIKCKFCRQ
Format: functional, cell-based
RESULT_TYPE: AC50

# COMPOUND, AC50
data = [
    ("CN(Cc1ccc(C(C)(C)C)cc1)Cc1cccc2ccccc12", "> 10 µM"),
    ("CC(C)(C)NCC(O)COc1cccc2c1CC(O)C(O)C2 (configuration not stated)", "> 10 µM"),
    ("C[C@]12CCC(=O)C=C1C=C[C@@H]1[C@@H]2CC[C@@]2(C)[C@H]1CC[C@@]21CCC(=O)O1", "> 30 µM"),
    ("CCN(C(C)=O)c1cccc(-c2ccnc3c(C#N)cnn23)c1", "> 10 µM"),
    ("CN1C2CCCC1CC(NC(=O)c1nn(C)c3ccccc13)C2 (configuration not stated)", "> 10 µM"),
    ("COc1ccc(C(=O)c2ccccc2)c(O)c1", "> 30 µM"),
]

Request: Lookup: AC50 / 5-hydroxytryptamine receptor 1A (Homo sapiens, UniProt P08908) / CCNC(=O)CCC/C=C\C[C@@H]1[C@@H](/C=C/[C@@H](O)CCc2ccccc2)[C@H](O)C[C@@H]1O
Response: > 30 µM

Request: Lookup: AC50 / 5-hydroxytryptamine receptor 1A (Homo sapiens, UniProt P08908) / CC(=O)N1CCN(c2ccc(OCC3COC(Cn4ccnc4)(c4ccc(Cl)cc4Cl)O3)cc2)CC1 (configuration not stated)
Response: > 10 µM

Request: Lookup: AC50 / 5-hydroxytryptamine receptor 1A (Homo sapiens, UniProt P08908) / Cc1ccc(-c2ncc(Cl)cc2-c2ccc(S(C)(=O)=O)cc2)cn1
Response: > 10 µM

Request: Lookup: AC50 / 5-hydroxytryptamine receptor 1A (Homo sapiens, UniProt P08908) / CO/N=C(\C(=O)N[C@@H]1C(=O)N2C(C(=O)[O-])=C(C[n+]3ccc(N)n3CCO)CS[C@H]12)c1csc(N)n1
Response: > 30 µM

Request: Lookup: AC50 / 5-hydroxytryptamine receptor 1A (Homo sapiens, UniProt P08908) / COc1ccc2c3c1O[C@H]1C(=O)CC[C@H]4[C@@H](C2)N(C)CC[C@]314 [HYDROCODONE]
Response: > 10 µM

Data provenance is ChEMBL document CHEMBL5291721.
